TARGET DESC: T1, α‐FXIIa (Homo sapiens, UniProt P00748)
T1 construct: purchased Enzyme Research Laboratories (Swansea, UK)
T1 sequence (P00748 373-615 limits assumed): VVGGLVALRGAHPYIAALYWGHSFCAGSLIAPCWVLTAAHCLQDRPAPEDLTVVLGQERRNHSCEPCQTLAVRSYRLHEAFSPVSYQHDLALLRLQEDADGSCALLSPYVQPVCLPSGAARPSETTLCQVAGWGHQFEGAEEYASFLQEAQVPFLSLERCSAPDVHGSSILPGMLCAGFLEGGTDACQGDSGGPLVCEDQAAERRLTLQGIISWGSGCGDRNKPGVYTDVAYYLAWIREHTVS
T1 sequence (P00748 20-372 partner limits assumed): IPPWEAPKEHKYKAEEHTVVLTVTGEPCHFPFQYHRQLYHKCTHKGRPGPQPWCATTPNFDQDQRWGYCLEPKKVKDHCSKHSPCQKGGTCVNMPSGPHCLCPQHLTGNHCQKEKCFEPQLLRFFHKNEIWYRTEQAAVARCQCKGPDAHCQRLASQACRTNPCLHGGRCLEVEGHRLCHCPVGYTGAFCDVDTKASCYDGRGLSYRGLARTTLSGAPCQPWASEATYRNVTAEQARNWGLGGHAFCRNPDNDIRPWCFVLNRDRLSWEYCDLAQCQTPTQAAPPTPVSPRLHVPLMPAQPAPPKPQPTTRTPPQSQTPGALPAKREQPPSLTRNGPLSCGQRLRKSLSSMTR
ASSAY OVERVIEW: α‐FXIIa enzymatic assay (S‐2302 chromogenic substrate cleavage, pNA release)
Type: biochemical
RECORDED CONDITIONS: CTI variant proteins 10^−8 M to 10^−5 M, 200 μM S‐2302, 10 nM α‐FXIIa, 33 °C, initial rate of first 30 min, A405; SE of the fit, n = 3–5 independent experiments; SEM

{"MOLECULE": "L35A: rec‐CTI variant, alanine substitution of Leu35 (protein, assayed as His6-GST fusion (tag omitted); disulfides) SAGTSCVPGWAIPHNPLPSCRWYVTSRTCGIGPRAPWPELKRRCCRELADIPAYCRCTALSILMDGAIPPGPDAQLEGRLEDLPGCPREVQRGFAATLVTEAECNLATISGVAECPWILGGGTMPSK", "pIC50 ± SE": 5.31}
{"MOLECULE": "R42A: rec‐CTI variant, alanine substitution of Arg42 (protein, assayed as His6-GST fusion (tag omitted); disulfides) SAGTSCVPGWAIPHNPLPSCRWYVTSRTCGIGPRLPWPELKARCCRELADIPAYCRCTALSILMDGAIPPGPDAQLEGRLEDLPGCPREVQRGFAATLVTEAECNLATISGVAECPWILGGGTMPSK", "pIC50 ± SE": 6.72}
{"MOLECULE": "W37A: rec‐CTI variant, alanine substitution of Trp37 (protein, assayed as His6-GST fusion (tag omitted); disulfides) SAGTSCVPGWAIPHNPLPSCRWYVTSRTCGIGPRLPAPELKRRCCRELADIPAYCRCTALSILMDGAIPPGPDAQLEGRLEDLPGCPREVQRGFAATLVTEAECNLATISGVAECPWILGGGTMPSK", "pIC50 ± SE": 6.97}
